# target_or_test_system: T1, monkey MSR1 extracellular domain expressed with a N-terminal hexahistidine-myc-myc tag (HMM-mfMSR1) (monkey (Macaca fascicularis))
# T1 chain: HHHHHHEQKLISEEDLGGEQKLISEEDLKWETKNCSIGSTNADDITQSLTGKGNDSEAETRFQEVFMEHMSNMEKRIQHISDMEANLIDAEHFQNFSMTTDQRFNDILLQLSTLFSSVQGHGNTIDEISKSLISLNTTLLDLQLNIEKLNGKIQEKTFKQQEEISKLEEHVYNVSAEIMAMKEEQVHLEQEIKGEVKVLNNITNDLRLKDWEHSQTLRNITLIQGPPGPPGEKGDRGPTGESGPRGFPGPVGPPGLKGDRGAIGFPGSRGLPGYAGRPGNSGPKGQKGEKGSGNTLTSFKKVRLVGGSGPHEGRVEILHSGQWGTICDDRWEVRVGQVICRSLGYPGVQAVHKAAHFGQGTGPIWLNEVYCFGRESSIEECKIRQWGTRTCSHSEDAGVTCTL
# assay_overview: SPR Biacore, 37 C, antibody captured
Below is a list of entries, each paired with its recorded t½ value.
test_readout: t½ (h)

# binder, measurement_units, reported_measurement
data = [
    ("H1H27732P-N297Q (antibody, V domains shown, Human IgG1 Fc with N297Q point mutation) VH: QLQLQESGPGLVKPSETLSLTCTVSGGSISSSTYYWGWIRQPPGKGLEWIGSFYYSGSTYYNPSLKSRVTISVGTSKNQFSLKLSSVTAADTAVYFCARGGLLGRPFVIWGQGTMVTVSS VL: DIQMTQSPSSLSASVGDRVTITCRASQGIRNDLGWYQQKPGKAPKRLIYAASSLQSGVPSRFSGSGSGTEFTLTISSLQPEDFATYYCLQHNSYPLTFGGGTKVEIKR", "h", 1.82),
    ("H1H27731P-N297Q (antibody, V domains shown, Human IgG1 Fc with N297Q point mutation) VH: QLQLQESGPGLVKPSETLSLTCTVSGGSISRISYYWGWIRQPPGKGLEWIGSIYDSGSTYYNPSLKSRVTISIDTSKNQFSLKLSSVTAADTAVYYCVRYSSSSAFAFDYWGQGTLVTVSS VL: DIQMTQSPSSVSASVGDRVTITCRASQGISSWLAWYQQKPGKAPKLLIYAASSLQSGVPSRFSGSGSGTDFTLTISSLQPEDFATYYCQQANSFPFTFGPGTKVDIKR", "h", 1.03),
    ("H1H27754P-N297Q (antibody, V domains shown, Human IgG1 Fc with N297Q point mutation) VH: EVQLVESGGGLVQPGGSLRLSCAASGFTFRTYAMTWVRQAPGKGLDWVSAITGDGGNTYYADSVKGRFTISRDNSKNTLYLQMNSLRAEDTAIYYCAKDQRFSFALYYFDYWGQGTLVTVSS VL: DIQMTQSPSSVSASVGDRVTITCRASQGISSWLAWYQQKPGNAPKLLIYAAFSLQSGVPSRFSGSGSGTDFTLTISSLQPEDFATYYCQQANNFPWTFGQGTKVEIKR", "h", 5.45),
    ("H1H27729P-N297Q (antibody, V domains shown, Human IgG1 Fc with N297Q point mutation) VH: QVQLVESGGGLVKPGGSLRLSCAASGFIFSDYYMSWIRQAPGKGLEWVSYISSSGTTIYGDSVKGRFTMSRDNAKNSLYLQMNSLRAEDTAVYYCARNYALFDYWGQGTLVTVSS VL: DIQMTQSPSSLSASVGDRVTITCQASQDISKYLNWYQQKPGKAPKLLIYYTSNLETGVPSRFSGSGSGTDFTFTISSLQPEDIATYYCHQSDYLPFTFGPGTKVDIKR", "h", 0.055),
]

Provenance of the data: patent US20190367631A1
